# System: S. epidermidis 510
# EXPERIMENT: MIC, hospital MRSE strain
# Assay type: cell-based, Staphylococcus epidermidis
# RUN_PARAMETERS: hospital MRSE S. epidermidis 510
# Procedure: […] Antifungal activities were assessed using Mueller–Hinton agar + 2% glucose and 0.5 µg/mL methylene blue dye medium. […] The results (diameter of the growth inhibition zone) were read after 18 h of incubation at 35 °C. […] Minimal inhibitory concentrations (the lowest concentration of a tested agent that prevents visible growth of a microorganism) were read after 18 h (bacteria) or 24 h (yeasts) of incubation at 35 °C.
MEASURE: MIC (µg/mL)
Give bare numbers, in µg/mL.

INSERT INTO results (compound, test_value) VALUES
  ('O=[N+]([O-])c1cc([N+]2=C(Nc3ccc(Br)cc3)[S][Cu-2]23[S]C(Nc2ccc(Br)cc2)=[N+]3c2ccc(Cl)c([N+](=O)[O-])c2)ccc1Cl [Compound 3]', 4);

Your task in this section: give MIC for each listed record.
1. O=[N+]([O-])c1cc([N+]2=C(Nc3ccc(F)c(Cl)c3)[S][Cu-2]23[S]C(Nc2ccc(F)c(Cl)c2)=[N+]3c2ccc(Cl)c([N+](=O)[O-])c2)ccc1Cl [Compound 4]
2. O=[N+]([O-])c1cc([N+]2=C(Nc3ccccc3Br)[S][Cu-2]23[S]C(Nc2ccccc2Br)=[N+]3c2ccc(Cl)c([N+](=O)[O-])c2)ccc1Cl [Compound 1]
3. O=[N+]([O-])c1cc([N+]2=C(Nc3ccc(Cl)c(Cl)c3)[S][Cu-2]23[S]C(Nc2ccc(Cl)c(Cl)c2)=[N+]3c2ccc(Cl)c([N+](=O)[O-])c2)ccc1Cl [Compound 5]
4. O=[N+]([O-])c1cc([N+]2=C(Nc3ccc(I)cc3)[S][Cu-2]23[S]C(Nc2ccc(I)cc2)=[N+]3c2ccc(Cl)c([N+](=O)[O-])c2)ccc1Cl [Compound 8]

1. 8
2. 8
3. 16
4. 8
